- testedTarget: T1, CD28 (endogenously expressed on Jurkat/IL2 reporter cells) (human, UniProt P10747 19-220)
- T1 construct: Endogenous CD28 of Jurkat cells; also called human CD28
- assayProtocol: flow cytometry MFI at 33.3 nM relative to WT CD80 ECD-Fc (R&D), Jurkat cells
measurementKind: Fold change to WT

binder	measurementKind	result
variant CD80 IgV-Fc H18Y/A26E/Q33L/E35D/M47L/L85Q (Fc fusion, not shown: a dimerising Fc or GST) VIHVTKEVKEVATLSCGYNVSVEELEQTRIYWLKDKKMVLTMMSGDLNIWPEYKNRTIFDITNNLSIVILALRPSDEGTYECVVQKYEKDAFKREHLAEVTLSVKAD	Fold change to WT	0.04 fold
variant CD80 IgV-Fc E35D/M47L/L85Q (Fc fusion, not shown: a dimerising Fc or GST) VIHVTKEVKEVATLSCGHNVSVEELAQTRIYWQKDKKMVLTMMSGDLNIWPEYKNRTIFDITNNLSIVILALRPSDEGTYECVVQKYEKDAFKREHLAEVTLSVKAD	Fold change to WT	0.08 fold
